Structures can show the parent of a compound that is named as a salt.
So I've got Ki readings for UniProt:P00734, take a look.
Measured parameter: Ki

Molecule	Measured parameter	Reported
Cc1nc(N)ccc1CNC(=O)[C@@H]1CCc2ncc(NCc3ccccc3C(F)F)c(=O)n21 [Compound 27, di-trifluoroacetate]	Ki	500 to 2500 nM
Cc1ccc(F)cc1CNc1cnc2n(c1=O)[C@H](C(=O)NCc1ccc(N)nc1C)CC2 [Compound 31, di-trifluoroacetate]	Ki	500 to 2500 nM
Cc1cccc(C(C)Nc2cnc3n(c2=O)[C@H](C(=O)NCc2cc4c(s2)CNC4)CC3)c1 (single isomer, unassigned) [Compound 69, di-trifluoroacetate]	Ki	500 to 2500 nM
Cc1cccc(CNc2cnc3n(c2=O)[C@H](C(=O)NCc2ccc(N)nc2C)CC3)c1F [Compound 33, di-trifluoroacetate]	Ki	500 to 2500 nM
Cc1nc(N)ccc1CNC(=O)[C@@H]1CCc2ncc(NCc3cccc(OC(F)(F)F)c3F)c(=O)n21 [Compound 39, di-trifluoroacetate]	Ki	500 to 2500 nM
Cc1ccccc1CNc1cnc2n(c1=O)[C@H](C(=O)NCc1ccc(N)nc1C)CC2 [Compound 54]	Ki	500 to 2500 nM
CCc1cccc(CNc2cnc3n(c2=O)[C@H](C(=O)NCc2ccc(N)nc2C)CC3)c1 [Compound 26]	Ki	500 to 2500 nM
Cc1cc(C)cc(CNc2cnc3n(c2=O)[C@H](C(=O)NCc2cc4cnc(C)cc4[nH]2)CC3)c1 [Compound 7, trifluoroacetate]	Ki	> 25000 nM
Cc1cc(C)cc(CNc2cnc3n(c2=O)[C@H](C(=O)NCc2cccnc2C)CC3)c1 [Compound 23, trifluoroacetate]	Ki	> 25000 nM
Cc1cc(C)cc(CNc2cnc3n(c2=O)[C@H](C(=O)N[C@@H](C)c2cc4c(s2)CNC4)CC3)c1 [Compound 107]	Ki	> 25000 nM
COc1cccc(CNc2cnc3n(c2=O)[C@H](C(=O)NCc2ccc(N)nc2C)CC3)c1C [Compound 48, trifluoroacetate]	Ki	500 to 2500 nM
Cc1nc(N)ccc1CNC(=O)[C@@H]1CCc2ncc(NCc3cccc(F)c3C)c(=O)n21 [Compound 63]	Ki	500 to 2500 nM
Nc1ccc2c(n1)CC[C@H]2NC(=O)[C@@H]1CCc2ncc(NCc3cccc(C(F)F)c3)c(=O)n21 [Compound 84]	Ki	500 to 2500 nM
Cc1cc(C)cc(CNc2cnc3n(c2=O)[C@H](C(=O)N[C@@H](C)c2ccc(N)nc2)CC3)c1 [Compound 15]	Ki	> 25000 nM
Cc1cc(Cl)cc(CNc2cnc3n(c2=O)[C@H](C(=O)NCc2ccc(N)nc2C)CC3)c1 [Compound 55]	Ki	< 500 nM
N#Cc1cc(Cl)cc(CNc2cnc3n(c2=O)[C@H](C(=O)N[C@@H]2CCc4nc(N)ccc42)CC3)c1 [Compound 89]	Ki	< 500 nM
Cc1ccc(F)c(CNc2cnc3n(c2=O)[C@H](C(=O)N[C@@H]2CCc4nc(N)ccc42)CC3)c1 [Compound 95]	Ki	500 to 2500 nM
Cc1cc(C#N)cc(CNc2cnc3n(c2=O)[C@H](C(=O)NCc2ccc(N)nc2C)CC3)c1 [Compound 8]	Ki	500 to 2500 nM
Cc1ccc(F)c(CNc2cnc3n(c2=O)[C@H](C(=O)NCc2cc4c(s2)CNC4)CC3)c1 [Compound 50, di-trifluoroacetate]	Ki	2500 to 10000 nM
Cc1nc(N)ccc1CNC(=O)[C@@H]1CCc2ncc(NCc3cccc(C(=O)O)c3)c(=O)n21 [Compound 13]	Ki	10000 to 25000 nM
COc1cc(Cl)cc(CNc2cnc3n(c2=O)[C@H](C(=O)N[C@H](C)c2ccc(N)nc2)CC3)c1 [Compound 76]	Ki	10000 to 25000 nM
COc1ccc(CNc2cnc3n(c2=O)[C@H](C(=O)NCc2ccc(N)nc2C)CC3)cc1F [Compound 46, di-trifluoroacetate]	Ki	500 to 2500 nM
COc1c(F)ccc(F)c1CNc1cnc2n(c1=O)[C@H](C(=O)NCc1ccc(N)nc1C)CC2 [Compound 36, di-trifluoroacetate]	Ki	2500 to 10000 nM
Cc1nc(N)ccc1CNC(=O)[C@@H]1CCc2ncc(NCc3c(F)cccc3F)c(=O)n21 [Compound 32, di-trifluoroacetate]	Ki	10000 to 25000 nM
Cc1ccc(CNc2cnc3n(c2=O)[C@H](C(=O)NCc2ccc(N)nc2C)CC3)cc1 [Compound 61]	Ki	2500 to 10000 nM
COc1c(C)cccc1CNc1cnc2n(c1=O)[C@H](C(=O)NCc1ccc(N)nc1C)CC2 [Compound 10, trifluoroacetate]	Ki	500 to 2500 nM
Cc1cc(CNc2cnc3n(c2=O)[C@H](C(=O)N[C@H](C)c2ccc(N)nc2)CC3)cc(C(F)(F)F)c1 [Compound 51]	Ki	> 25000 nM

---

Readings of pKi for the listed compounds
Target: UniProt:P00734
pKi: −log10 of the molar value. Where a name gives a salt, the structure may show the parent alone.
Measured parameter: pKi

Compound	Measured parameter	Reported
Nc1ccc2c(n1)CC[C@H]2NC(=O)[C@@H]1CCc2ncc(NCc3ccc4c(c3)COC4)c(=O)n21	pKi	5.00 to 5.60
COc1cc(F)cc(CNc2cnc3n(c2=O)[C@H](C(=O)NCc2ccc(N)nc2C)CC3)c1 [Compound 49, di-trifluoroacetate]	pKi	> 6.30
Cc1cc(C)cc(CNc2cnc3n(c2=O)[C@H](C(=O)NCc2cncc(Cl)c2)CC3)c1 [Compound 17, trifluoroacetate]	pKi	> 6.30
Cc1cc(C)cc(CNc2cnc3n(c2=O)[C@H](C(=O)N[C@H](C)c2cc4c(s2)CNC4)CC3)c1	pKi	< 4.60
Cc1nc(N)ccc1CNC(=O)[C@@H]1CCc2ncc(NCc3cc(OC(F)(F)F)ccc3F)c(=O)n21 [Compound 41, di-trifluoroacetate]	pKi	5.60 to 6.30
Cc1cc(C)cc(CNc2cnc3n(c2=O)[C@H](C(=O)NCc2ccc4cncn4c2)CC3)c1	pKi	< 4.60
Cc1nc(N)ccc1CNC(=O)[C@@H]1CCc2ncc(NCc3cnn(-c4ccccc4)c3)c(=O)n21 [Compound 24, trifluoroacetate]	pKi	4.60 to 5.00
Cc1nc(N)ccc1CNC(=O)[C@@H]1CCc2ncc(NCc3ccc4c(c3)OC(F)(F)O4)c(=O)n21 [Compound 12, trifluoroacetate]	pKi	5.00 to 5.60
